- Tested on: 832693-133-R-J1-PDC multi-cell spheroids, viability
- experiment: Anticancer human tumor 832693-133-R-J1-PDC patient-derived head and neck squamous carcinoma cell line growth inhibition [IpAb]
- test.parameters: second compound 0.1 µM; first compound 0.3 µM; stronger effect = lower value
observable: viability, T/C (%)
Return type: number; implicit unit %.

Cn1cnc2c(F)c(Nc3ccc(Br)cc3Cl)c(C(=O)NOCCO)cc21 + CC(C)NCC(C(=O)N1CCN(c2ncnc3c2C(C)CC3O)CC1)c1ccc(Cl)cc1    38.7
CC(=O)c1c(C)c2cnc(Nc3ccc(N4CCNCC4)cn3)nc2n(C2CCCC2)c1=O + CC(C)NCC(C(=O)N1CCN(c2ncnc3c2C(C)CC3O)CC1)c1ccc(Cl)cc1    44.7

**Query** Can you look up viability, T/C on 832693-133-R-J1-PDC multi-cell spheroids, viability for Cn1cnc2c(F)c(Nc3ccc(Br)cc3Cl)c(C(=O)NOCCO)cc21 + CCN1CCN(Cc2ccc(Nc3ncc(F)c(-c4cc(F)c5nc(C)n(C(C)C)c5c4)n3)nc2)CC1 ?
**Result** 32.1

###

- Tested on: 832693-133-R-J1-PDC multi-cell spheroids, viability
- experiment: Anticancer human tumor 832693-133-R-J1-PDC cell line growth inhibition [IpAb];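 further: spheroids exposed to the drugs for one week before the viability readout; 100% = DMSO vehicle control wells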
- test.parameters: second compound 1 µM; first compound 0.00316 µM; stronger effect = lower value
observable: viability, T/C (%)
Return type: number; implicit unit %.

**Query** Which measured viability, T/C value corresponds to Cn1ncnc1[C@H]1c2n[nH]c(=O)c3cc(F)cc(c23)N[C@@H]1c1ccc(F)cc1 + CC(C)NCC(C(=O)N1CCN(c2ncnc3c2C(C)CC3O)CC1)c1ccc(Cl)cc1 ?
**Result** 49.3

**Query** Let us now turn to COc1c(OCCCN2CCOCC2)ccc2c3n(c(=NC(=O)c4cnc(N)nc4)nc12)CCN3 + CCN1CCN(Cc2ccc(Nc3ncc(F)c(-c4cc(F)c5nc(C)n(C(C)C)c5c4)n3)nc2)CC1
**Result** 53.2

**Query** Let us now turn to COc1c(OCCCN2CCOCC2)ccc2c3n(c(=NC(=O)c4cnc(N)nc4)nc12)CCN3 + CC(C)NCC(C(=O)N1CCN(c2ncnc3c2C(C)CC3O)CC1)c1ccc(Cl)cc1
**Result** 43.2

###

- Tested on: 832693-133-R-J1-PDC multi-cell spheroids, viability
- experiment: Anticancer human tumor 832693-133-R-J1-PDC cell line growth inhibition [IpAb];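 further: spheroids exposed to the drugs for one week before the viability readout; 100% = DMSO vehicle control wells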
- test.parameters: second compound 10 µM; first compound 3.16 µM; stronger effect = lower value
observable: viability, T/C (%)
Return type: number; implicit unit %.

C=CC(=O)N1CCN(c2nc(=O)n(-c3c(C)ccnc3C(C)C)c3nc(-c4c(O)cccc4F)c(F)cc23)C(C)C1 (configuration not stated) + CC(C)NCC(C(=O)N1CCN(c2ncnc3c2C(C)CC3O)CC1)c1ccc(Cl)cc1    56
Cn1nccc1Nc1nccc(-c2ccn(C(CO)c3ccc(Cl)c(F)c3)c(=O)c2)n1 (configuration not stated) + CC(C)NCC(C(=O)N1CCN(c2ncnc3c2C(C)CC3O)CC1)c1ccc(Cl)cc1    17.9

**Query** Can you look up viability, T/C on 832693-133-R-J1-PDC multi-cell spheroids, viability for CCCS(=O)(=O)Nc1ccc(F)c(C(=O)c2c[nH]c3ncc(-c4ccc(Cl)cc4)cc23)c1F + CC(C)NCC(C(=O)N1CCN(c2ncnc3c2C(C)CC3O)CC1)c1ccc(Cl)cc1 ?
**Result** 98.8

**Query** Let us now turn to Cn1ncc(Cl)c1-c1cc(C(=O)NC(CN)Cc2cccc(F)c2)sc1Cl (configuration not stated) + CC(C)NCC(C(=O)N1CCN(c2ncnc3c2C(C)CC3O)CC1)c1ccc(Cl)cc1
**Result** 46.1

**Query** Let us now turn to C=CCn1c(=O)c2cnc(Nc3ccc(N4CCN(C)CC4)cc3)nc2n1-c1cccc(C(C)(C)O)n1 + CC(C)NCC(C(=O)N1CCN(c2ncnc3c2C(C)CC3O)CC1)c1ccc(Cl)cc1
**Result** 6.52

**Query** Let us now turn to Cc1nc(NC(=O)N2CCCC2C(N)=O)sc1-c1ccnc(C(C)(C)C(F)(F)F)c1 (configuration not stated) + CC(C)NCC(C(=O)N1CCN(c2ncnc3c2C(C)CC3O)CC1)c1ccc(Cl)cc1
**Result** 13.3

**Query** Let us now turn to CC1(C)CCC(CN2CCN(c3ccc(C(=O)NS(=O)(=O)c4ccc(NCC5CCOCC5)c([N+](=O)[O-])c4)c(Oc4cnc5[nH]ccc5c4)c3)CC2)=C(c2ccc(Cl)cc2)C1 + CC(C)NCC(C(=O)N1CCN(c2ncnc3c2C(C)CC3O)CC1)c1ccc(Cl)cc1
**Result** 57.4
